Biological target: HLA-B1501 (purified MHC class I molecule) (human)
Assay: competition with a radiolabeled probe peptide for purified MHC class I
metric: pIC50
When answering, recall that pIC50 equals minus log10 of the concentration in mol/L, and write that number alone.

Reported pIC50 of AVINTTCNYGQ (modifications not checked) [Mtb8.4 5-15 peptide …] : 8.00
